- subjectOfTest: Photoreceptor-specific nuclear receptor (Homo sapiens) (UniProt Q9Y5X4)
- Sequence (Q9Y5X4 whole entry, looked up): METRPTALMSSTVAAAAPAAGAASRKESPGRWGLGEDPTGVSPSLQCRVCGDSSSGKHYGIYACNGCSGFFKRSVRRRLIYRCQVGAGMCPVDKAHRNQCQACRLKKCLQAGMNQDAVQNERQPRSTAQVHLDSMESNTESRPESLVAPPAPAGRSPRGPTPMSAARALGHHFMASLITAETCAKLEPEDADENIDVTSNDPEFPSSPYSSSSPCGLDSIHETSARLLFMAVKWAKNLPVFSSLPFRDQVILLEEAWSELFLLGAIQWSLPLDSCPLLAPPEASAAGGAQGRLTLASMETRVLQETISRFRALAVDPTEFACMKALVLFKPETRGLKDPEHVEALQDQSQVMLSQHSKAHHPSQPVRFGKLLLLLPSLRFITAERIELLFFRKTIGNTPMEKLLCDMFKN
- procedureSummary: NR2E3 agonist confirmation in cells, cell-based, luminescence, CHO-S two-hybrid (AID 624378);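 further: 0% = DMSO in NR2E3 cells and 100% = DMSO in cells lacking NR2E3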
- conditionDetails: CHO-S mammalian two-hybrid NR2E3-NCOR, luciferase luminescence; at 3.98 µM; stronger effect = higher value
This is one part of the list. Calls of active or inactive are those of the source.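 How the source made its calls: active means average inhibition above a cutoff equal to the mean inhibition of all tested compounds plus one SD (cut at about 70% in these data); inactive means the rest.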
Field: inhibition. Provide a value for each of the compounds that follow.

Reference set, count: 8
> print(dat)
                                   compound                             subjectoftest            result
1  O=[N+]([O-])c1ccc(NS(=O)(=O)c2ccccc2)c(Cl)c1  Photoreceptor-specific nuclear receptor (Homo sapiens) (UniProt Q9Y5X4)    77.9% (active)
2  COc1ccc(C(=O)NNC(=S)NC(=O)c2ccccc2[N+](=O)[O-])cc1  Photoreceptor-specific nuclear receptor (Homo sapiens) (UniProt Q9Y5X4)  3.63% (inactive)
3  Cc1ccc(C)c(S(=O)(=O)N2CCN(c3ncnc4sccc34)CC2)c1  Photoreceptor-specific nuclear receptor (Homo sapiens) (UniProt Q9Y5X4)    93.9% (active)
4  Cc1ccc(NC(=O)CN(C)CC(=O)Nc2cccc(F)c2)cc1[N+](=O)[O-]  Photoreceptor-specific nuclear receptor (Homo sapiens) (UniProt Q9Y5X4)    74.5% (active)
5        CC(C)(C)Nc1nc(-c2ccccn2)nc2ccccc12  Photoreceptor-specific nuclear receptor (Homo sapiens) (UniProt Q9Y5X4)    99.2% (active)
6    COc1cccc(CNc2nc(NCc3cccs3)nc3ccsc23)c1  Photoreceptor-specific nuclear receptor (Homo sapiens) (UniProt Q9Y5X4)  67.6% (inactive)
7  CCOC(=O)CC1(NC(=O)c2cc(COc3cncc(Cl)c3)on2)CCCCC1  Photoreceptor-specific nuclear receptor (Homo sapiens) (UniProt Q9Y5X4)  20.2% (inactive)
8  N#Cc1c(-c2ccccc2)nc(SCc2cccc(C(F)(F)F)c2)[nH]c1=O  Photoreceptor-specific nuclear receptor (Homo sapiens) (UniProt Q9Y5X4)  43.6% (inactive)

Respectfully, I request inhibition for each entry included below.
1. Clc1ccc(-n2nnnc2-c2cnc(-c3ccccn3)nc2-c2cccs2)cc1
2. OC[C@@H]1CN(Cc2ccc(-c3ccccc3)cc2)C[C@H](n2cnc3c(NC4CCCC4)ncnc32)O1
3. COc1ccc(S(=O)(=O)N2CCN(C(C)C(=O)Nc3ccc(C(C)C)cc3)CC2)cc1 (configuration not stated)
4. CC(=O)N1CCCc2cc(S(=O)(=O)N3CCCC(C(=O)N4CCN(c5cccc(Cl)c5)CC4)C3)ccc21 (configuration not stated)
5. c1coc(CNc2ncnc3ccccc23)c1
6. N#C[C@]1(S(=O)(=O)c2ccccc2)C[C@@H]2ON=C(c3cccc(Br)c3)[C@@H]2C1

["24.1% (inactive)", "94.9% (active)", "-2.85% (inactive)", "93% (active)", "71.1% (active)", "88.5% (active)"]

----------
Field: inhibition. Provide a value for each of the compounds that follow.
- Test system: transactivating tegument protein VP16 (Human herpesvirus 1), Gal4-VP16 luciferase reporter
- procedureSummary: VP16 transactivation inhibitors, counter-screen for SRC3 inhibitor project, cell-based, luminescence, high throughput (AID 588794)
- conditionDetails: mammalian cells, VP16-driven luciferase reporter luminescence; at 3.6 µM; stronger effect = higher value
One number for each entry, in %.

Reference set, count: 10
> print(dat)
                                    compound  unittag  result
 1     CN1CCN(c2ncnc3scc(-c4ccccc4Cl)c23)CC1        %    41.5
 2  Cc1cc(C=C2C(=O)c3ccccc3C2=O)c(C)n1-c1cccc(C(=O)O)c1        %    10.4
 3           Cc1ccc(C(=O)Nc2cnc3ccccc3c2)cc1        %    9.25
 4  CN(C)C(=O)c1cccc(-c2cnc3sc(NCc4ccc5c(c4)OCO5)nn23)c1        %    35.7
 5  COc1ccc(S(=O)(=O)/N=C2\C=C(Nc3ccc(O)cc3)C(=O)c3ccccc32)cc1        %    92.8
 6  CCN(CC)c1ccc(C(=C2C=CC(=[N+](CC)CC)C=C2)c2ccc(N(CC)CC)cc2)cc1        %    89.9
 7  COc1ccc(-c2[nH]ncc2-c2ccc3c(c2)OCCO3)c(O)c1        %    58.3
 8  Cc1ccc(C(=O)Nc2sc3c(c2C(=O)O)CCC(C)C3)o1 (stereo unspecified)        %    68.3
 9           O=C(Nc1nc2ccccc2[nH]1)c1ccccc1F        %    19.6
10  CCn1c(Oc2ccc(F)cc2)nc2c1c(=O)n(C)c(=O)n2C        %    29.8

Kindly consider the entry below.
Param item = `CCn1c(Oc2ccccc2F)nc2c1c(=O)n(C)c(=O)n2C` ; retrieve measured inhibition.
51
